targetOrTestSystem: 5-HT1D (Homo sapiens, UniProt P28221)
Construct: gene HTR1D; human recombinant receptor, crude membranes of HEK293 or CHO cells
Sequence (P28221 whole entry): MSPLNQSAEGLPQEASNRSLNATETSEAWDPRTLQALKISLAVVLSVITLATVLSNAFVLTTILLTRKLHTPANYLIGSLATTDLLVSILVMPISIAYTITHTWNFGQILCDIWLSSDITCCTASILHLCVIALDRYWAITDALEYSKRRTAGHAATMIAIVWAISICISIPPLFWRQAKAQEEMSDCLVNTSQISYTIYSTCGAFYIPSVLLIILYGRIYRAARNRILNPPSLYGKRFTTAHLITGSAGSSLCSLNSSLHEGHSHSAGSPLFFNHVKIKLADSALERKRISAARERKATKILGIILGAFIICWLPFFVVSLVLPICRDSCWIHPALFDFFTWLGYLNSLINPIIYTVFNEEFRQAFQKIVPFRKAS
runDescription: biochemical
Set-up: species or system HEK293 or CHO; competitive radioligand binding on crude membranes, filtration and scintillation counting
# inhibition at 10 µM annotations
# value in %; strip the unit string

>>> print(df.to_string())
                                   compound  datavalue
0  C[C@H](Oc1nc(N2CCNC[C@H]2C)ncc1F)c1ccc(F)cc1 [(S,R)-4e]       40.4

Okay, next one:
Query: Dear colleague, I am looking for the recorded inhibition at 10 µM of the following compound: C[C@H](Cc1cccc(F)c1)Oc1nc(N2CCNC[C@H]2C)ncc1F
Reply: 78.3
